# target.or.test.system: T1, Cbz-Ala-Ala-AAsn-CH═CH-CON(Bzl)2
# T1 chain: AAN
# kobs/[I] listing for each entry below
reported.endpoint: kobs/[I] (M⁻¹ s⁻¹)

[
  {
    "protein": "Papain (protein) IPEYVDWRQKGAVTPVKNQGSCGSCWAFSAVVTIEGIIKIRTGNLNEYSEQELLDCDRRSYGCNGGYPWSALQLVAQYGIHYRNTYPYEGVQRYCRSREKGPYAAKTDGVRQVQPYNEGALLYSIANQPVSVVLEAAGKDFQLYRGGIFVGPCGNKVDHAVAAVGYGPNYILIKNSWGTGWGENGYIRIKRGTGNSYGVCGLYTSSFYPVKN",
    "reported.endpoint": "kobs/[I]",
    "reported.value": 1
  },
  {
    "protein": "schistosome legumain SmAE (Schistosoma mansoni asparaginyl endopeptidase) (protein) VSDNNKWAVLVAGSNGYPNYRHQADVCHAYHVLRSKGIKPEHIITMMYDDIAYNLMNPFPGKLFNDYNHKDWYEGVVIDYRGKNVNSKTFLKVLKGDKSAGGKVLKSGKNDDVFIYFTDHGAPGLIAFPDDELYAKEFMSTLKYLHSHKRYSKLVIYIEANESGSMFQQILPSNLSIYATTAANSTECSYSTFCGDPTITTCLADLYSYNWIVDSQTHHLTQRTLDQQYKEVKRETDLSHVQRYGDTRMGKLYVSEFQGS",
    "reported.endpoint": "kobs/[I]",
    "reported.value": 5800
  }
]

Attribution: patent US20050256058
